These entries and their values trace back to patent US9255090B2.

A set of molecules tested on hCRTH2 receptor (Homo sapiens (Human), UniProt Q9Y5Y4), with measured pIC50:
One number for each entry, as −log10 of the molar value.

Some entries whose results are on file:
INSERT INTO results (molecule, study_target, endpoint, value_measured) VALUES
  ('COc1ccc(CC(=O)O)cc1-c1ccc(F)c2c1CN(C(=O)CC1CCc3ccccc3C1)CC2 (racemic)', 'hCRTH2 receptor (Homo sapiens (Human), UniProt Q9Y5Y4)', 'pIC50', 8.85),
  ('COc1ccc(CC(=O)O)cc1-c1ccc(F)c2c1CN(C(=O)CC(C)(C)c1cccc(F)c1)CC2', 'hCRTH2 receptor (Homo sapiens (Human), UniProt Q9Y5Y4)', 'pIC50', 7.88),
  ('COc1ccc(CC(=O)O)cc1-c1ccc(Cl)c2c1CN(C(=O)[C@@H]1C[C@H]1c1ccc(Cl)cc1)CC2', 'hCRTH2 receptor (Homo sapiens (Human), UniProt Q9Y5Y4)', 'pIC50', 8.43);

Endpoint output: pIC50 of CCOc1cc(CC(=O)O)ccc1-c1ccc(F)c2c1CN(C(=O)OCc1cnccn1)CC2 . Value? 8.47

###

These records show log10 of IC50 for hCRTH2 receptor (Homo sapiens (Human), UniProt Q9Y5Y4).
In plain terms, each number is the log10 of measured IC50 in nM.

Take a look at these entries with their results.
INSERT INTO assay_data (compound, study_target, endpoint, value_measured) VALUES
  ('COc1ccc(C(C)C(=O)O)cc1-c1ccc(F)c2c1CN(C(=O)[C@@H]1C[C@H]1c1ccccc1)CC2 (mixture of isomers)', 'hCRTH2 receptor (Homo sapiens (Human), UniProt Q9Y5Y4)', 'log10 of IC50', 0.93),
  ('CCOc1cc(CC(=O)O)ccc1-c1ccc(F)c2c1CN(C(=O)CCc1ccc(F)cc1)CC2', 'hCRTH2 receptor (Homo sapiens (Human), UniProt Q9Y5Y4)', 'log10 of IC50', 0.71),
  ('C[C@H](CC(=O)N1CCc2c(F)ccc(-c3cc(CC(=O)O)ccc3OCC(F)(F)F)c2C1)c1ccccc1', 'hCRTH2 receptor (Homo sapiens (Human), UniProt Q9Y5Y4)', 'log10 of IC50', 0.56),
  ('O=C(O)Cc1cccc(-c2ccc(F)c3c2CN(C(=O)OCc2ccccc2)CC3)c1F', 'hCRTH2 receptor (Homo sapiens (Human), UniProt Q9Y5Y4)', 'log10 of IC50', 1.40),
  ('COc1ccc(CC(=O)O)cc1-c1ccc(F)c2c1CN(C(=O)[C@@H]1C[C@H]1c1ccccc1)CC2 [Example 80]', 'hCRTH2 receptor (Homo sapiens (Human), UniProt Q9Y5Y4)', 'log10 of IC50', 0.28);

List reported log10 of IC50 for each of these compounds:
1. CCOc1ccc(CC(=O)O)cc1-c1ccc(F)c2c1CN(C(=O)/C=C/c1ccccn1)CC2
2. O=C(O)Cc1ccc(OCC(F)(F)F)c(-c2ccc(F)c3c2CN(C(=O)CC2COc4ccccc42)CC3)c1 (racemic)
3. O=C(O)COc1ccc(OC(F)(F)F)c(-c2ccc(F)c3c2CN(C(=O)OCc2ccccc2)CC3)c1
4. COc1cc(CC(=O)O)ccc1-c1ccc(F)c2c1CN(C(=O)CCOc1ccc(F)cc1)CC2
5. COc1ccc(CC(=O)O)cc1-c1ccc(F)c2c1CN(C(=O)CC1CCOc3c(F)cccc31)CC2 (racemic)
6. CCOc1cc(CC(=O)O)ccc1-c1ccc(F)c2c1CN(C(=O)C(C)Cc1ccccn1)CC2 (racemic)
7. CCOc1ccc(CC(=O)O)cc1-c1ccc(F)c2c1CN(C(=O)NCc1ccccc1OC)CC2

0.58
0.53
0.39
-0.16
1.35
0.91
1.04
